Would you kindly list IC50 for each of these molecules?
# System: Daoy
# protocol: Antiproliferative activity against human DaOY cells after 72 hrs by MTS assay
# Assay type: cell-based
Please state the value followed by its unit.

// field: IC50; key: C=C(C)[C@@H]1CC[C@]2(CO)CC[C@]3(C)[C@H](CC[C@@H]4[C@@]5(C)C=C(C#N)C(=O)C(C)(C)[C@@H]5CC[C@]43C)[C@@H]12 ; value = 8 µM

// field: IC50; key: CC(C)[C@@H]1CC[C@]2(CO)CC[C@]3(C)[C@H](CC[C@@H]4[C@@]5(C)C=C(C#N)C(=O)C(C)(C)[C@@H]5CC[C@]43C)[C@@H]12 ; value = 9 µM

// field: IC50; key: CC(C)[C@@H]1CC[C@]2(CO)CC[C@]3(C)[C@H](CC[C@@H]4[C@@]5(C)Cc6cnoc6C(C)(C)[C@@H]5CC[C@]43C)[C@@H]12 ; value = 7 µM

// field: IC50; key: CC(C)[C@@H]1CC[C@]2(C(=O)O)CC[C@]3(C)[C@H](CC[C@@H]4[C@@]5(C)C=C(C#N)C(=O)C(C)(C)[C@@H]5CC[C@]43C)[C@@H]12 ; value = 71 µM

// field: IC50; key: C=C(C)[C@@H]1CC[C@]2(CO)CC[C@]3(C)[C@H](CC[C@@H]4[C@@]5(C)Cc6cnoc6C(C)(C)[C@@H]5CC[C@]43C)[C@@H]12 ; value = 8 µM

// field: IC50; key: C=C(C)[C@@H]1CC[C@]2(COC3CCCCO3)CC[C@]3(C)[C@H](CC[C@@H]4[C@@]5(C)C=C(C#N)C(=O)C(C)(C)[C@@H]5CC[C@]43C)[C@@H]12 (some centres not stated) ; value = 14 µM

// field: IC50; key: C=C(C)[C@@H]1CC[C@]2(C=O)CC[C@]3(C)[C@H](CC[C@@H]4[C@@]5(C)C=C(C#N)C(=O)C(C)(C)[C@@H]5CC[C@]43C)[C@@H]12 ; value = 13 µM

====

# Test system: SK-MEL-2
# protocol: Antiproliferative activity against human SK-MEL-2 cells after 72 hrs by MTS assay
# Format: functional, cell-based
# protocol-conditions: SK-MEL-2, 72 h
quantity-measured: pIC50
Please express pIC50 as -log10 of the molar concentration.

// field: pIC50; key: C=C(C)[C@@H]1CC[C@]2(CO)CC[C@]3(C)[C@H](CC[C@@H]4[C@@]5(C)Cc6cnoc6C(C)(C)[C@@H]5CC[C@]43C)[C@@H]12 ; value = 5.10

// field: pIC50; key: C=C(C)[C@@H]1CC[C@]2(CO)CC[C@]3(C)[C@H](CC[C@@H]4[C@@]5(C)C=C(C#N)C(=O)C(C)(C)[C@@H]5CC[C@]43C)[C@@H]12 ; value = 5.15

// field: pIC50; key: C=C(C)[C@@H]1CC[C@]2(C(=O)O)CC[C@]3(C)[C@H](CC[C@@H]4[C@@]5(C)CC[C@H](O)C(C)(C)[C@@H]5CC[C@]43C)[C@@H]12 [BETULINIC ACID] ; value = 4.48

// field: pIC50; key: CC(C)[C@@H]1CC[C@]2(CO)CC[C@]3(C)[C@H](CC[C@@H]4[C@@]5(C)Cc6cnoc6C(C)(C)[C@@H]5CC[C@]43C)[C@@H]12 ; value = 5.10

// field: pIC50; key: CC(C)[C@@H]1CC[C@]2(CO)CC[C@]3(C)[C@H](CC[C@@H]4[C@@]5(C)C=C(C#N)C(=O)C(C)(C)[C@@H]5CC[C@]43C)[C@@H]12 ; value = 5.22

====

# Test system: Daoy
# protocol: Antiproliferative activity against human DaOY cells after 72 hrs by MTS assay
# Assay type: cell-based
quantity-measured: IC50

Observed IC50 on Daoy, entry C=C(C)[C@@H]1CC[C@]2(C(=O)O)CC[C@]3(C)[C@H](CC[C@@H]4[C@@]5(C)CC[C@H](O)C(C)(C)[C@@H]5CC[C@]43C)[C@@H]12 [BETULINIC ACID] , equals 31 µM

Observed IC50 on Daoy, entry C=C(C)[C@@H]1CC[C@]2(C(=O)O)CC[C@]3(C)[C@H](CC[C@@H]4[C@@]5(C)C=C(C#N)C(=O)C(C)(C)[C@@H]5CC[C@]43C)[C@@H]12 , equals > 75 µM

Observed IC50 on Daoy, entry C=C(C)[C@@H]1CC[C@]2(CO)CC[C@]3(C)[C@H](CC[C@@H]4[C@@]5(C)CC(C#N)C(=O)C(C)(C)[C@@H]5CC[C@]43C)[C@@H]12 (stereo not given in full) , equals 44 µM

Observed IC50 on Daoy, entry CC(C)[C@@H]1CC[C@]2(COC3CCCCO3)CC[C@]3(C)[C@H](CC[C@@H]4[C@@]5(C)CC(C#N)C(=O)C(C)(C)[C@@H]5CC[C@]43C)[C@@H]12 (stereo not given in full) , equals 21 µM

Observed IC50 on Daoy, entry C=C(C)[C@@H]1CC[C@]2(COC3CCCCO3)CC[C@]3(C)[C@H](CC[C@@H]4[C@@]5(C)CC(C#N)C(=O)C(C)(C)[C@@H]5CC[C@]43C)[C@@H]12 (stereo not given in full) , equals 29 µM

====

# Test system: A-375
# protocol: Antiproliferative activity against human A375 cells after 72 hrs by MTS assay
# Format: functional, cell-based
# protocol-conditions: A-375, 72 h
Label fulfilled when IC50 is strictly below 10 µM; otherwise label not fulfilled.

Task: Confirm or reject: IC50 of C=C(C)[C@@H]1CC[C@]2(C(=O)O)CC[C@]3(C)[C@H](CC[C@@H]4[C@@]5(C)CC[C@H](O)C(C)(C)[C@@H]5CC[C@]43C)[C@@H]12 [BETULINIC ACID] lies strictly below 10 µM
Result: not fulfilled

Task: Confirm or reject: IC50 of C=C(C)[C@@H]1CC[C@]2(C(=O)O)CC[C@]3(C)[C@H](CC[C@@H]4[C@@]5(C)C=C(C#N)C(=O)C(C)(C)[C@@H]5CC[C@]43C)[C@@H]12 lies strictly below 10 µM
Result: not fulfilled

Task: Confirm or reject: IC50 of CC(C)[C@@H]1CC[C@]2(C(=O)O)CC[C@]3(C)[C@H](CC[C@@H]4[C@@]5(C)C=C(C#N)C(=O)C(C)(C)[C@@H]5CC[C@]43C)[C@@H]12 lies strictly below 10 µM
Result: not fulfilled

Task: Confirm or reject: IC50 of C=C(C)[C@@H]1CC[C@]2(CO)CC[C@]3(C)[C@H](CC[C@@H]4[C@@]5(C)C=C(C#N)C(=O)C(C)(C)[C@@H]5CC[C@]43C)[C@@H]12 lies strictly below 10 µM
Result: fulfilled

Task: Confirm or reject: IC50 of C=C(C)[C@@H]1CC[C@]2(COC3CCCCO3)CC[C@]3(C)[C@H](CC[C@@H]4[C@@]5(C)CC(C#N)C(=O)C(C)(C)[C@@H]5CC[C@]43C)[C@@H]12 (stereo partly specified) lies strictly below 10 µM
Result: not fulfilled

Task: Confirm or reject: IC50 of C=C(C)[C@@H]1CC[C@]2(COC3CCCCO3)CC[C@]3(C)[C@H](CC[C@@H]4[C@@]5(C)C=C(C#N)C(=O)C(C)(C)[C@@H]5CC[C@]43C)[C@@H]12 (stereo partly specified) lies strictly below 10 µM
Result: not fulfilled

Task: Confirm or reject: IC50 of CC(C)[C@@H]1CC[C@]2(CO)CC[C@]3(C)[C@H](CC[C@@H]4[C@@]5(C)C=C(C#N)C(=O)C(C)(C)[C@@H]5CC[C@]43C)[C@@H]12 lies strictly below 10 µM
Result: fulfilled

Task: Confirm or reject: IC50 of C=C(C)[C@@H]1CC[C@]2(C=O)CC[C@]3(C)[C@H](CC[C@@H]4[C@@]5(C)C=C(C#N)C(=O)C(C)(C)[C@@H]5CC[C@]43C)[C@@H]12 lies strictly below 10 µM
Result: fulfilled

Task: Confirm or reject: IC50 of CC(C)[C@@H]1CC[C@]2(COC3CCCCO3)CC[C@]3(C)[C@H](CC[C@@H]4[C@@]5(C)CC(C#N)C(=O)C(C)(C)[C@@H]5CC[C@]43C)[C@@H]12 (stereo partly specified) lies strictly below 10 µM
Result: not fulfilled

Task: Confirm or reject: IC50 of C=C(C)[C@@H]1CC[C@]2(CO)CC[C@]3(C)[C@H](CC[C@@H]4[C@@]5(C)CC(C#N)C(=O)C(C)(C)[C@@H]5CC[C@]43C)[C@@H]12 (stereo partly specified) lies strictly below 10 µM
Result: not fulfilled

====

# System: SK-MEL-2
# protocol: Antiproliferative activity against human SK-MEL-2 cells after 72 hrs by MTS assay
# Assay type: functional, cell-based
# protocol-conditions: SK-MEL-2, 72 h
Would you kindly list pIC50 for each of these molecules?
Please express pIC50 as -log10 of the molar concentration.

Observed pIC50 on SK-MEL-2, entry C=C(C)[C@@H]1CC[C@]2(C=O)CC[C@]3(C)[C@H](CC[C@@H]4[C@@]5(C)C=C(C#N)C(=O)C(C)(C)[C@@H]5CC[C@]43C)[C@@H]12 , equals 4.40

Observed pIC50 on SK-MEL-2, entry C=C(C)[C@@H]1CC[C@]2(COC3CCCCO3)CC[C@]3(C)[C@H](CC[C@@H]4[C@@]5(C)C=C(C#N)C(=O)C(C)(C)[C@@H]5CC[C@]43C)[C@@H]12 (some centres not stated) , equals 4.64

Observed pIC50 on SK-MEL-2, entry CC(C)[C@@H]1CC[C@]2(C(=O)O)CC[C@]3(C)[C@H](CC[C@@H]4[C@@]5(C)C=C(C#N)C(=O)C(C)(C)[C@@H]5CC[C@]43C)[C@@H]12 , equals 4.23

Observed pIC50 on SK-MEL-2, entry C=C(C)[C@@H]1CC[C@]2(CO)CC[C@]3(C)[C@H](CC[C@@H]4[C@@]5(C)CC(C#N)C(=O)C(C)(C)[C@@H]5CC[C@]43C)[C@@H]12 (some centres not stated) , equals 4.38

Observed pIC50 on SK-MEL-2, entry C=C(C)[C@@H]1CC[C@]2(COC3CCCCO3)CC[C@]3(C)[C@H](CC[C@@H]4[C@@]5(C)CC(C#N)C(=O)C(C)(C)[C@@H]5CC[C@]43C)[C@@H]12 (some centres not stated) , equals 4.72

Observed pIC50 on SK-MEL-2, entry CC(C)[C@@H]1CC[C@]2(COC3CCCCO3)CC[C@]3(C)[C@H](CC[C@@H]4[C@@]5(C)CC(C#N)C(=O)C(C)(C)[C@@H]5CC[C@]43C)[C@@H]12 (some centres not stated) , equals 4.60

Hello, the source for this data is ChEMBL document CHEMBL1153976, in case you need it.
